These data points were gathered from patent US20260224758A1.

target: triton-extracted alpha-synuclein from PD Tissue (Homo sapiens); construct: tissue Analytic Biological Services Inc; host or cells: human PD temporal cortex grey matter, Triton X-100 insoluble pellet; assay: Alpha-synuclein tissue homogenate binding assay (Assay 1), displacement of [^3H]-1000; settings: Aβ Tissue Ki / α-synuclein Tissue Ki
Catalogue of Selectivity ratio (Assay 2/Assay 1) readings, one per entry.
Endpoint name: Selectivity ratio (Assay 2/Assay 1)

Compound	Recorded measurement
FCCOCCOC[C@H]1CN(c2ncc(/C=C/c3ccc(-c4cnco4)nc3)cn2)CCN1c1ncncn1 [Example 38]	600
COC[C@H]1CN(c2ccccn2)CCN1c1ncc(/C=C/c2ccc(-n3ccnc3)nc2)cn1 [Example 18]	24000
FCCCOC[C@H]1CN(c2ncc(C#Cc3ccc(-c4cnco4)nc3)cn2)CCN1c1ncncn1 [Example 74]	618
COCc1cnc(N2CCN(c3ncc(/C=C/c4ccc(-n5ccnc5)nc4)cn3)[C@@H](COC)C2)nc1 [Example 9]	15000

---

# key: entry, value: Selectivity ratio (Assay 2/Assay 1)
target: triton-extracted alpha-synuclein from PD Tissue (Homo sapiens, UniProt P37840); construct: tissue Analytic Biological Services Inc; host or cells: human PD temporal cortex grey matter, Triton X-100 insoluble pellet; test: Alpha-synuclein tissue homogenate binding assay (Assay 1), displacement of [^3H]-1000; conditions: Aβ Tissue Ki / α-synuclein Tissue Ki
Endpoint name: Selectivity ratio (Assay 2/Assay 1)

Compound	Tested on	Recorded measurement
COC[C@H]1CN(c2ncc(C#Cc3ccc(-n4ccnc4)nc3)cn2)CCN1c1nccc(F)n1 [Example 60]	triton-extracted alpha-synuclein from PD Tissue (Homo sapiens, UniProt P37840)	538
COC[C@H]1CN(c2cnc(C#Cc3ccc(-n4ccnc4)nc3)c(F)n2)CCN1c1ncccn1 [Example 57]	triton-extracted alpha-synuclein from PD Tissue (Homo sapiens, UniProt P37840)	7
FCCOC[C@H]1CN(c2ncccn2)CCN1c1ncc(/C=C/c2ccc(-n3ccnc3)nc2)cn1 [Example 30]	triton-extracted alpha-synuclein from PD Tissue (Homo sapiens, UniProt P37840)	12000
OC[C@H]1CN(c2ncc(C#Cc3ccc(-n4ccnc4)nc3)cn2)CCN1c1ncccn1 [Example 10]	triton-extracted alpha-synuclein from PD Tissue (Homo sapiens, UniProt P37840)	2449
COC[C@H]1CN(c2ncc(C#Cc3ccc(N4CC(F)C4)nc3)cn2)CCN1c1ncccn1 [Example 68]	triton-extracted alpha-synuclein from PD Tissue (Homo sapiens, UniProt P37840)	469
FCCOC[C@H]1CN(c2ccncc2)CCN1c1ncc(/C=C/c2ccc(-n3ccnc3)nc2)cn1 [Example 31]	triton-extracted alpha-synuclein from PD Tissue (Homo sapiens, UniProt P37840)	2600
COC[C@H]1CN(c2ncc(C#Cc3ccc(N4CC[C@H](F)C4)nc3)cn2)CCN1c1ncccn1 [Example 72]	triton-extracted alpha-synuclein from PD Tissue (Homo sapiens, UniProt P37840)	617
COC[C@H]1CN(c2ccccn2)CCN1c1ncc(/C=C/c2ccc(-c3ncco3)nc2)cn1 [Example 20]	triton-extracted alpha-synuclein from PD Tissue (Homo sapiens, UniProt P37840)	7059

---

target: triton-extracted alpha-synuclein from PD Tissue (Homo sapiens, UniProt P37840); construct: tissue Analytic Biological Services Inc; host or cells: human PD temporal cortex grey matter, Triton X-100 insoluble pellet; experiment: Alpha-synuclein tissue homogenate binding assay (Assay 1), displacement of [^3H]-1000; settings: insoluble fraction of PD brain homogenate, [^3H]-1000 3.0 nM, Kd 0.90 nM; read-out: α-synuclein Tissue Ki (Assay 1)
pKi: −log10 of the molar value.
Label rule, in plain words: pKi of 9 and up is True, under 9 is False.

Compound	Group label
COC[C@H]1CN(c2ccccn2)CCN1c1ncc(/C=C/c2ccc(-n3ccnc3)nc2)cn1 [Example 18]	True
COC[C@H]1CN(c2ncc(C#Cc3ccc(-n4ccnc4)nc3)cn2)CCN1c1nccc(F)n1 [Example 60]	False
COC[C@H]1CN(c2ncncn2)CCN1c1ncc(C#Cc2cnc(-c3cnn(CCF)c3)nc2)cn1 [Example 84]	False
OC[C@H]1CN(c2ccncn2)CCN1c1ncc(/C=C/c2ccc(-n3ccnc3)nc2)cn1 [Example 24]	True
FCCOC[C@H]1CN(c2ncc(C#Cc3ccc(-n4cnnc4)nc3)cn2)CCN1c1ncncn1 [Example 70]	False
